- assay-comment: Toxicity in po dosed Wistar rat
- Format: organism-based
- measurement-setup: in vivo
readout-kind: LD50

{"columns": ["molecule", "result"],
 "data": [
  ["CC(C(=O)O)c1cc(Cl)c2c(c1)CC(C)(C)O2 (stereo unspecified)", "720 mg/kg"]
]}

---

- System: Rattus norvegicus
- assay-comment: Antiinflammatory activity in Wistar rat assessed as reduction in carrageenan-induced paw edema at 100 mg/kg, po treated 2 hrs before carrageenan challenge measured after 3 hrs
- Assay type: functional
The reader will find reported inhibition in vivo at 100 mg/kg values listed item by item below.

{"columns": ["compound", "target-system", "inhibition in vivo at 100 mg/kg"],
 "data": [
  ["CC1Cc2cc(C(C)C(=O)O)cc(Cl)c2O1.NC1CCCCC1 (centres undefined)", "Rattus norvegicus", "57%"],
  ["CC(C(=O)O)c1cc(Cl)c2c(c1)CC(C)(C)O2 (centres undefined)", "Rattus norvegicus", "58%"],
  ["CC1(C)Cc2cc(CC(=O)NO)ccc2O1", "Rattus norvegicus", "9%"],
  ["CC1(C)Cc2cc(CC(=O)O)ccc2O1", "Rattus norvegicus", "32%"],
  ["CC1(C)Cc2cc(CC(N)=O)ccc2O1", "Rattus norvegicus", "20%"],
  ["CC1(C)Cc2cc(CC(=O)NO)cc(Cl)c2O1", "Rattus norvegicus", "13%"],
  ["CC1(C)Cc2cc(C(=O)/C=C/C(=O)O)cc(Cl)c2O1", "Rattus norvegicus", "3%"],
  ["CC1Cc2cc(CC(=O)O)cc(Cl)c2O1 (centres undefined)", "Rattus norvegicus", "27%"],
  ["CC1Oc2c(Cl)cc(CC(=O)O)cc2C1C.NC1CCCCC1 (centres undefined)", "Rattus norvegicus", "30%"],
  ["CC1(C)Cc2cc(CCCC(=O)O)cc(Cl)c2O1", "Rattus norvegicus", "32%"],
  ["CC1(C)Cc2cc(C(=O)CCC(=O)O)cc(Cl)c2O1", "Rattus norvegicus", "37%"],
  ["CC1(C)Cc2cc(CC(=O)O)cc(Cl)c2O1", "Rattus norvegicus", "37%"],
  ["CC1(C)Cc2cc(CC(N)=O)cc(Cl)c2O1", "Rattus norvegicus", "31%"],
  ["CC1Cc2cc(CC(N)=O)cc(Cl)c2O1 (centres undefined)", "Rattus norvegicus", "17%"]
]}
